Reference source: paper PMC11050400

assay: Experimental lipophilicity by reversed-phase thin-layer chromatography (RP-TLC); settings: RP-TLC, mobile phase acetone:buffer Tris
Readings of R M0 for the listed molecules
Field format: numeric only.

molecule	val
Clc1ccc(C(c2ccc(Cl)cc2)C(Cl)(Cl)Cl)cc1 [DDT]	5.20
C=C(C)[C@@H]1CC[C@]2(C(=O)O)CC[C@]3(C)[C@H](CC[C@@H]4[C@@]5(C)CCC(=O)C(C)(C)[C@@H]5CC[C@]43C)[C@@H]12 [Betulonic acid, 3-oxo-lup-20(29)-28-oic acid]	5.39
c1ccc2cc3ccccc3cc2c1 [anthracene]	3.03

// moving on: another record for R M0
So, c1ccc(CCc2ccccc2)cc1 [dibenzyl] ? Its R M0 was 3.51
